Give melting point for every item shown.

Item: CONC(=O)Nc1ccc(-c2sc3c(c2CN(C)[C@H](C)c2ccccc2)c(=O)n(-c2ccccn2)c(=O)n3Cc2c(F)cccc2F)cc1 [Reference Example 38] | melting point: 168 to 170 °C

According to the records, this molecule CONC(=O)Nc1ccc(-c2sc3c(c2CN(C)[C@H](C)c2ccccc2)c(=O)n(-c2ccc(F)cn2)c(=O)n3Cc2c(F)cccc2F)cc1 [Reference Example 39] displays melting point of 128 to 130 °C

# molecule COCC(C)N(C)Cc1c(-c2ccc(NC(=O)NOC)cc2)sc2c1c(=O)n(-c1ccccc1)c(=O)n2Cc1c(F)cccc1F (stereo not drawn) [Reference Example 34] ; its melting point = 154 to 155 °C
